Where these numbers come from: PubChem BioAssay

Measurement notes: CREB reporter modulators under forskolin, primary screen, cell-based, PC12, CRE-LacZ reporter, forskolin-stimulated (AID 1146);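 further: PC12 cells with 6xCRE LacZ reporter stimulated by forskolin 10 µM; beta-galactosidase reporter signal reflecting CREB driven transcription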
Experimental conditions: luminescence, 4.5 h, higher = more signal, called active from +8 up or from −8 down
Rule: satisfied for z-score not less than -1, not satisfied for anything less.

{"Compound": "[N-]=[N+]=Nc1ccccc1[C@H]1OC(c2ccc(OCCCO)cc2)=N[C@@]1(Cc1ccccc1)C(N)=O", "Class assignment": "not satisfied"}
{"Compound": "COc1c(C)cc(-c2cc3c(c(CCc4ccccc4)n2)[Si](C(C)C)(C(C)C)OC3)cc1C", "Class assignment": "satisfied"}
{"Compound": "C#CCN1C(C(=O)OCC)OC[C@H]1c1ccccc1 (stereo not given in full)", "Class assignment": "satisfied"}
{"Compound": "[N-]=[N+]=NCc1ccccc1C[C@]1(C(=O)NCc2ccccc2)N=C(c2ccc(OCCCO)cc2)O[C@H]1c1ccccc1", "Class assignment": "not satisfied"}
{"Compound": "CC(C)(C)OC(=O)CC[C@]1(C(=O)NCc2ccccc2)N=C(c2ccc(OCCCO)cc2)O[C@H]1c1ccccc1N=[N+]=[N-]", "Class assignment": "not satisfied"}
{"Compound": "CC(C)(C)OC(=O)CC[C@@]1(C(=O)NCc2ccccc2)N=C(c2ccc(OCCCO)cc2)O[C@@H]1c1ccccc1CN=[N+]=[N-]", "Class assignment": "not satisfied"}
{"Compound": "O=C1O[C@H](c2ccccc2)[C@H](c2ccccc2)N2[C@H]1[C@@H](C(=O)NC[C@H](O)c1ccccc1)[C@]1(C(=O)Nc3ccc(C#CC4(O)CCCCCC4)cc31)[C@H]2c1ccc(O)cc1", "Class assignment": "satisfied"}
{"Compound": "C=C(COC)/C(=C/C[C@H](OC(C)=O)c1ccc(CO)o1)c1cnc2ccccc2c1", "Class assignment": "not satisfied"}
{"Compound": "O=C1c2ccccc2[C@](Cc2ccccc2I)(C(=O)O)[C@H](c2ccc(CO)cc2)N1Cc1ccccc1Cl", "Class assignment": "satisfied"}
{"Compound": "C=CCN1C(=O)[C@@]2(O[C@@H](CCO)[C@H]([Si](C)(C)c3ccc(OC)cc3)[C@H]2C)c2cc(N3C(=O)c4cccc5cccc3c45)ccc21", "Class assignment": "not satisfied"}
{"Compound": "COC(=O)C(CC#Cc1ccc2c(c1)[C@]1(C(=O)N2)[C@H](C(=O)O)[C@H]2C(=O)O[C@H](c3ccccc3)[C@H](c3ccccc3)N2[C@@H]1c1ccc(OCCO)cc1)C(=O)OC", "Class assignment": "not satisfied"}
{"Compound": "O=C(O)[C@H]1C[C@H]2C(=O)N[C@@H](Cc3ccccc3)C(=O)N2[C@H]1c1ccc(O)cc1", "Class assignment": "satisfied"}
{"Compound": "CO[C@H]1O[C@H](CO)[C@@H](OC(=O)Nc2ccccc2)[C@H](OC(=O)Nc2ccccc2-c2ccccc2)[C@H]1OC(=O)Nc1ccccc1-c1ccccc1", "Class assignment": "satisfied"}
{"Compound": "CCOC(=O)C[C@H]1[C@H](OC(=O)c2ccc(C(=O)c3ccccc3)cc2)[C@@H](NC(=O)Cc2ccc(OC)cc2)c2cc(OCCCO)ccc2N1C(=O)Cc1ccc(OC)cc1", "Class assignment": "satisfied"}
{"Compound": "C=C1C=C(Br)C2(OCCCO2)[C@H]2OC12 (stereo not given in full)", "Class assignment": "satisfied"}

* * *

Measurement notes: IOSE-T80 ovarian epithelial cell cytotoxicity, dose response, cytotoxicity control for PAX8 inhibitor project, plate reader, dry powder samples (AID 743045);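 further: 0% = neutral control median and -100% = positive control median; more negative values mean more cell killing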
Experimental conditions: IOSE-T80 ovarian epithelial cells; series mostly up to 35 µM
Entries with a potency or affinity are not part of this list. The source made the active and inactive calls. How the calls were made is not given here.

{"Molecule": "Cc1ccc(S(=O)(=O)Nc2ccc3c(c2)C(=O)N([C@H](C)CO)C[C@@H](C)[C@@H](CN(C)Cc2ccc(C(F)(F)F)cc2)OCCCC[C@H](C)O3)cc1", "activity change, negative = cytotoxicity": "inactive"}
{"Molecule": "C[C@@H]1CCCCO[C@@H](CN(C)C(=O)Nc2ccc(F)cc2)[C@H](C)CN([C@@H](C)CO)C(=O)c2cc(NC(=O)Nc3ccc(C(F)(F)F)cc3)ccc2O1", "activity change, negative = cytotoxicity": "inactive"}
{"Molecule": "C[C@H](CO)N1C[C@H](C)[C@@H](CN(C)C(=O)Nc2cccc3ccccc23)OCCCC[C@H](C)Oc2ccc(NC(=O)c3ccncc3)cc2C1=O", "activity change, negative = cytotoxicity": "inactive"}

* * *

// composite z-score lookup, one value per entry
Measurement notes: binders from COS7 lysate, DM2A8 probe, primary screen, torsin A project, cell lysate, small-molecule microarray, fluorescence 635/667 (AID 1065)
Experimental conditions: higher = more signal, COS7 lysate expressing mutant human TOR1A
Measure: composite z-score

{"Compound": "CC(C)[C@@H](C(=O)O)n1cc(-c2ccccn2)nn1", "Measure": "composite z-score", "Val": 0.424}
{"Compound": "COc1ccc([Si](C)(C)[C@@H]2[C@@H](CC(=O)N3CCC[C@H]3CO)O[C@]3(C(=O)N(Cc4ccc(I)cc4)c4ccccc43)[C@H]2C)cc1", "Measure": "composite z-score", "Val": 0.356}
{"Compound": "O=C(NO)[C@]1(Cc2ccccc2)N=C(c2ccc(OCCCO)cc2)O[C@@H]1c1ccccc1", "Measure": "composite z-score", "Val": 1.2}
{"Compound": "C=CCN1C(=O)[C@@]2(O[C@@H](CCO)[C@H]([Si](C)(C)c3ccc(OC)cc3)[C@H]2C)c2cc(N(C=O)c3ccccc3)ccc21", "Measure": "composite z-score", "Val": 0.24}
{"Compound": "CO[C@H]1O[C@H](CO)[C@@H](OC(=O)CCc2ccccc2)[C@@H]2OC(=O)[C@H](Cc3ccccc3)C/C=C/C[C@@H](Cc3ccccc3)C(=O)O[C@@H]12", "Measure": "composite z-score", "Val": -0.106}
{"Compound": "O=C(N1CCCCC1)[C@@]1(Cc2ccccc2)N=C(c2ccc(OCCCO)cc2)O[C@H]1c1ccccc1", "Measure": "composite z-score", "Val": 2}
{"Compound": "CCCNC(=O)[C@@]1(Sc2ccc(C)cc2)CC(=O)N(Cc2cc(C(F)(F)F)cc(C(F)(F)F)c2)[C@@H]1c1ccc(CO)cc1I", "Measure": "composite z-score", "Val": 0.273}
{"Compound": "COc1c(C)cc(-c2cc3c(c(CCc4ccccc4)n2)[Si](C(C)C)(C(C)C)OC3)cc1C", "Measure": "composite z-score", "Val": 1.49}
{"Compound": "O=C(O)[C@H]1C[C@H]2C(=O)NCC(=O)N2[C@H]1c1cccc(OCCO)c1", "Measure": "composite z-score", "Val": 0.942}
{"Compound": "COC(=O)C1=CC(CCCO)=CC(C2CC2)N(Cc2cc3c(cc2Br)OCO3)C=C1C(=O)OC (stereo not given)", "Measure": "composite z-score", "Val": 2.08}
{"Compound": "C=CCN1C(=O)[C@@]2(O[C@@H](CCO)[C@H]([Si](C)(C)c3ccc(OC)cc3)[C@H]2C)c2cc(N3C(=O)c4cccc5cccc3c45)ccc21", "Measure": "composite z-score", "Val": 0.0485}
{"Compound": "C=CCC(OC(C)=O)[C@@H]1[C@@H](N(Cc2ccc(-c3cccc(C(F)(F)F)c3)o2)C(=O)c2ccc(-c3ccccc3)cc2)c2cc(OCCCO)ccc2N1C(=O)Cc1ccc(OC)cc1 (stereo not given in full)", "Measure": "composite z-score", "Val": -0.338}
{"Compound": "C/C=C/[C@@H](CCn1cc(CCO[Si](C(C)C)(C(C)C)C(C)C)nn1)[Si](C)(C)c1ccc(OC)cc1", "Measure": "composite z-score", "Val": -0.416}
{"Compound": "CCCNC(=O)[C@@H]1c2ccccc2C(=O)N(Cc2cc(C(F)(F)F)cc(C(F)(F)F)c2)[C@H]1c1ccc(CO)cc1", "Measure": "composite z-score", "Val": -0.27}
{"Compound": "Cc1ccc(S[C@]2(C(=O)NCCN3CCOCC3)CC(=O)N(Cc3cc(C(F)(F)F)cc(C(F)(F)F)c3)[C@@H]2c2ccc(CO)cc2)cc1", "Measure": "composite z-score", "Val": -0.439}

* * *

Measurement notes: small-molecule microarray binders of probe aXIP, primary screen, biochemical, NeuroSMM set, 635/667 nm fluorescence (AID 1119);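 further: probe is the protein aXip251-270 applied at 1 µg/mL to compound-printed slides; binding of probe to printed compounds measured as 667 nm fluorescence plus signal to noise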
Experimental conditions: higher = more signal, called active from +8 up or from −8 down
Rule: t for composite Z-score not less than 0.5, f for anything less.

{"Compound": "CCCC[C@@H](O)C1=C(C)C[C@H]2C(=O)N(C)C(=O)[C@H]2[C@H]1CO", "Class assignment": "f"}
{"Compound": "CC(C)(C)OC(=O)CC[C@@]1(C(=O)NCc2ccccc2)N=C(c2ccc(OCCCO)cc2)O[C@@H]1c1ccccc1CN=[N+]=[N-]", "Class assignment": "t"}
{"Compound": "CN1C=C(C(=O)OCCS(C)(=O)=O)C(C(=O)OCCS(C)(=O)=O)=CC(CCCO)=CC1c1cccs1 (centres undefined)", "Class assignment": "t"}
{"Compound": "COc1ccc([Si](C)(C)[C@@H]2[C@@H](CCn3cc(CCO)nn3)O[C@]3(C(=O)N(Cc4ccc(N5C(=O)c6cccc7cccc5c67)cc4)c4ccccc43)[C@H]2C)cc1", "Class assignment": "t"}
{"Compound": "NCCCCCCNC(=O)[C@@H]1C[C@@H]2C(=O)N[C@@H](Cc3ccccc3)C(=O)N2[C@@H]1c1ccc(O)cc1", "Class assignment": "t"}
{"Compound": "CC(C)[Si](C#C[Si](C(C)C)(C(C)C)C(C)C)(O[C@H](C)c1cn([C@H](C)c2ccccc2)nn1)C(C)C", "Class assignment": "f"}
{"Compound": "CCCCCCC#C[Si](O[C@H](c1ccccc1)c1cn(Cc2ccccc2)nn1)(C(C)C)C(C)C", "Class assignment": "f"}
{"Compound": "CC1CC/C=C\\[C@H]2OC34C=CCN(C(C)C)C(=O)[C@H]3N(C(CO)C(C)C)C(=O)[C@@H]4C2C(=O)O1 (some centres undefined)", "Class assignment": "f"}
{"Compound": "COc1ccc([Si](C)(C)[C@@H]2[C@@H](CCn3cc([C@H](O)c4ccccc4)nn3)O[C@]3(C(=O)N(C)c4c(Br)cc(C)cc43)[C@H]2C)cc1", "Class assignment": "t"}
{"Compound": "COC(=O)C(CC#Cc1ccc2c(c1)[C@]1(C(=O)N2)[C@H](C(=O)O)[C@H]2C(=O)O[C@H](c3ccccc3)[C@H](c3ccccc3)N2[C@@H]1c1ccc(OCCO)cc1)C(=O)OC", "Class assignment": "f"}
{"Compound": "CC(C)C(=C=CC[C@H](O)c1ccc(OCCO)cc1)C[C@H](O)COCc1ccccc1", "Class assignment": "t"}
{"Compound": "COc1ccc([Si](C)(C)[C@H]2[C@H](CC(=O)N(CCO)Cc3ccccc3)O[C@@]3(C(=O)N(Cc4cccc(N5C(=O)COc6ccccc65)c4)c4ccccc43)[C@@H]2C)cc1", "Class assignment": "t"}
{"Compound": "C=CCN1C(=O)[C@@]2(O[C@@H](CCO)[C@H]([Si](C)(C)c3ccc(OC)cc3)[C@H]2C)c2cc(N3C(=O)c4cccc5cccc3c45)ccc21", "Class assignment": "f"}
{"Compound": "C=CCC1(CC=C)C[C@H]2CO[C@H](c3ccc(OC)cc3)N2C1=O", "Class assignment": "f"}
